B1: library; numbered along this chain (parent)
chain: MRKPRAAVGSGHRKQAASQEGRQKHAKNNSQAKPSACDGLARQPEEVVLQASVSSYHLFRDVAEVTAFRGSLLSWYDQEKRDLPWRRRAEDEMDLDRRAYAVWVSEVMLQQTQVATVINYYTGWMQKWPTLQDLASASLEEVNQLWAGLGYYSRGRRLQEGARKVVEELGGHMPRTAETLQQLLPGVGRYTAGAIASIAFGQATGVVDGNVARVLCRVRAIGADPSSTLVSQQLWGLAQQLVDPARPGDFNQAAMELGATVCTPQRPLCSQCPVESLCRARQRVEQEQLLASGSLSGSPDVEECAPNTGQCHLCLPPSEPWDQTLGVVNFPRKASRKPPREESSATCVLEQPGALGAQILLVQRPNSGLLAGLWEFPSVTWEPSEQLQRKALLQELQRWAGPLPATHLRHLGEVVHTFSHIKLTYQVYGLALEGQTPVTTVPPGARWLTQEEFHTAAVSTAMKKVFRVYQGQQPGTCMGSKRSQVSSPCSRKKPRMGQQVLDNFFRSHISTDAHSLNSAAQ

variants of: B1; test: 8OG:A repair function score (normalized; synonymous = 0, nonsense = -1) (normalized log-likelihood score); higher = more repair activity (WT-like); settings: with 8OG:A DNA repair reporter (GFP) in HEK-293 MUTYH KO cells;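 note: cells sorted at 72 h after reporter transfection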
Think of -0.05 as a floor: if 8OG:A repair function score stands on it or above, it is class 1; beneath it, class 0.

>  <mutation-list>
L387C

>  <label-value>
class 0

$$$$
>  <mutation-list>
P247W

>  <label-value>
class 0

$$$$
>  <mutation-list>
D322W

>  <label-value>
class 0

$$$$
>  <mutation-list>
E385T

>  <label-value>
class 0

$$$$
>  <mutation-list>
V414N

>  <label-value>
class 0

$$$$
>  <mutation-list>
S298L

>  <label-value>
class 1

$$$$
>  <mutation-list>
S318T

>  <label-value>
class 1

$$$$
>  <mutation-list>
V230F

>  <label-value>
class 0

$$$$
>  <mutation-list>
R175T

>  <label-value>
class 1

$$$$
>  <mutation-list>
R87N

>  <label-value>
class 1

$$$$
>  <mutation-list>
K422D

>  <label-value>
class 0

$$$$
>  <mutation-list>
S52A

>  <label-value>
class 1

$$$$
>  <mutation-list>
C489Q

>  <label-value>
class 1

$$$$
>  <mutation-list>
Y121F

>  <label-value>
class 0

$$$$
>  <mutation-list>
A405S

>  <label-value>
class 1

$$$$
>  <mutation-list>
V242E

>  <label-value>
class 0

$$$$
>  <mutation-list>
S419E

>  <label-value>
class 0

$$$$
>  <mutation-list>
F68P

>  <label-value>
class 0

$$$$
>  <mutation-list>
K3D

>  <label-value>
class 0

$$$$
>  <mutation-list>
R81T

>  <label-value>
class 0

$$$$
>  <mutation-list>
Q252D

>  <label-value>
class 0

$$$$
